- System: Rattus norvegicus
- experimental protocol: Antiinflammatory activity in Wistar albino rat assessed as inhibition of carrageenan-induced paw edema at 25 mg/kg, po after 3 hrs (reference value: 1.08 +/- 0.41%)
- Assay type: functional
measurement name: inhibition in vivo at 25 mg/kg (%)
State the answer as a number, implicitly in %.

Please give the documented inhibition in vivo at 25 mg/kg of `O=c1c2c(Nc3ccccc3)nn(-c3ccc([N+](=O)[O-])cc3)c2nc(Nc2ccccc2)n1-c1ccccc1`
14.1

Retrieve inhibition in vivo at 25 mg/kg measured for `Cc1ccc(Nc2nn(-c3ccc([N+](=O)[O-])cc3)c3nc(Nc4ccccc4)n(-c4ccccc4)c(=O)c23)cc1` and print it.
30.2

Output inhibition in vivo at 25 mg/kg of `Cc1ccc(Nc2nn(-c3ccc(S(N)(=O)=O)cc3)c3nc(Nc4ccccc4)n(-c4ccccc4)c(=O)c23)cc1`
43.7

Supply inhibition in vivo at 25 mg/kg value. Item: `O=c1c2c(Nc3ccc(Cl)cc3)nn(-c3ccccc3)c2nc(Nc2ccccc2)n1-c1ccccc1`
28.6

Write down inhibition in vivo at 25 mg/kg measured for item `O=c1c2c(Nc3ccc([N+](=O)[O-])cc3)nn(-c3ccc([N+](=O)[O-])cc3)c2nc(Nc2ccccc2)n1-c1ccccc1`
16.8

Entry `NS(=O)(=O)c1ccc(-n2nc(Nc3ccc([N+](=O)[O-])cc3)c3c(=O)n(-c4ccccc4)c(Nc4ccccc4)nc32)cc1` needs its inhibition in vivo at 25 mg/kg filled in; supply it.
39.1

----------
- Test system: Rattus norvegicus
- experimental protocol: Antiinflammatory activity in Wistar albino rat assessed as inhibition of carrageenan-induced paw edema at 25 mg/kg, po after 3 hrs (reference value: 1.08 +/- 0.41%)
- Format: functional
measurement name: inhibition in vivo at 25 mg/kg (%)
Record the value in %, omitting the unit from your answer.

Study these solved cases before continuing.
{"compound": "O=c1c2c(Nc3ccc(Cl)cc3)nn(-c3ccc([N+](=O)[O-])cc3)c2nc(Nc2ccccc2)n1-c1ccccc1", "measurement name": "inhibition in vivo at 25 mg/kg", "unit abbreviation": "%", "measured number": 20.6}
{"compound": "O=c1c2c(Nc3ccccc3)nn(-c3ccccc3)c2nc(Nc2ccccc2)n1-c1ccccc1", "measurement name": "inhibition in vivo at 25 mg/kg", "unit abbreviation": "%", "measured number": 17.1}
{"compound": "CSc1nn(-c2ccccc2)c2nc(Nc3ccccc3)n(-c3ccccc3)c(=O)c12", "measurement name": "inhibition in vivo at 25 mg/kg", "unit abbreviation": "%", "measured number": 25.4}
{"compound": "NS(=O)(=O)c1ccc(-n2nc(Nc3ccc(Cl)cc3)c3c(=O)n(-c4ccccc4)c(Nc4ccccc4)nc32)cc1", "measurement name": "inhibition in vivo at 25 mg/kg", "unit abbreviation": "%", "measured number": 38.3}

Give the measured inhibition in vivo at 25 mg/kg for `NS(=O)(=O)c1ccc(-n2nc(Nc3ccccc3)c3c(=O)n(-c4ccccc4)c(Nc4ccccc4)nc32)cc1`
39.6

Kindly indicate its recorded inhibition in vivo at 25 mg/kg. Item: `Cc1ccc(-c2cc(C(F)(F)F)nn2-c2ccc(S(N)(=O)=O)cc2)cc1`
39.6

Complete the entry with inhibition in vivo at 25 mg/kg for `CSc1nn(-c2ccc(S(N)(=O)=O)cc2)c2nc(Nc3ccccc3)n(-c3ccccc3)c(=O)c12`
35.2

Please indicate inhibition in vivo at 25 mg/kg recorded for `Cc1ccc(Nc2nn(-c3ccccc3)c3nc(Nc4ccccc4)n(-c4ccccc4)c(=O)c23)cc1`
32.9

Give inhibition in vivo at 25 mg/kg for the following compound: `O=c1c2c(Nc3ccc([N+](=O)[O-])cc3)nn(-c3ccccc3)c2nc(Nc2ccccc2)n1-c1ccccc1`
15.1

Supply reported inhibition in vivo at 25 mg/kg belonging to this compound: O=C([O-])Cc1ccccc1Nc1c(Cl)cccc1Cl.[Na+] [DICLOFENAC SODIUM]
42.8

Answer with the recorded inhibition in vivo at 25 mg/kg of `CSc1nn(-c2ccc([N+](=O)[O-])cc2)c2nc(Nc3ccccc3)n(-c3ccccc3)c(=O)c12` only.
26.6

These data points were gathered from ChEMBL document CHEMBL2157865.
